# Tested on: P. falciparum W2
# assay remarks: Malaria SYBR Green Fluorescence Assay, W2 strain
# Type: cell-based, Plasmodium falciparum
# settings: SYBR Green Assay
parameter: log10(W2) (log10 of the value in ng/mL)
In our notation, the value equals log10 of W2 in ng/mL.

| compound | log10(W2) |
| --- | --- |
| CCN(CC)CCNc1nc(-c2ccc(Cl)cc2)nc(C(Cl)(Cl)Cl)n1 [Cmpd 286] | 0.30 |

Give the reported log10(W2) for ClC(Cl)(Cl)c1nc(NCCN2CCCC2)nc(-c2ccc(OCc3ccccc3)cc2)n1 [Cmpd 35] (system: P. falciparum W2). 2.10

Observed log10(W2) on P. falciparum W2 for CN1CCCC1CCNc1nc(-c2ccc(Cl)cc2)nc(C(Cl)(Cl)Cl)n1 (centres unmarked) [Cmpd 91] , please. 1.28

Could you share what log10(W2) was measured for CC(C)(C)c1ccc(-c2nc(NCCCN3CCCC3)nc(C(Cl)(Cl)Cl)n2)cc1 [Cmpd 34] , tested on P. falciparum W2? 2.15

Return log10(W2) measured with P. falciparum W2 given this compound: CC(C)(N)CNc1nc(-c2ccc(Cl)cc2)nc(C(Cl)(Cl)Cl)n1 [Cmpd 284] 0.48

I'm curious: which log10(W2) was measured for COc1cccc(-c2nc(NCc3cccnc3)nc(C(Cl)(Cl)Cl)n2)c1 [Cmpd 155] tested on P. falciparum W2? 2.16

Please state recorded log10(W2) (tested on P. falciparum W2) of Cc1ccc(-c2ccccc2-c2nc(NCc3ccncc3)nc(C(Cl)(Cl)Cl)n2)cc1 [Cmpd 299] 2.17

Find log10(W2) (P. falciparum W2) for the entry COc1cccc(Cc2nc(N3CCCN(C)CC3)nc(C(Cl)(Cl)Cl)n2)c1 [Cmpd 269] 2.46

Query for P. falciparum W2: what log10(W2) does the record show for CS(=O)(=O)c1ccc(-c2nc(NCCN3CCCC3)nc(C(Cl)(Cl)Cl)n2)cc1 [Cmpd 39] ? 1.65

GET /values?readout=log10(W2)&system=P. falciparum W2&item= COc1ccc(-c2nc(NC3CC(C)(C)NC(C)(C)C3)nc(C(Cl)(Cl)Cl)n2)cc1OC [Compound 328] 1.60
